System: Strep. suis (group D) SPS11
ASSAY_PROTOCOL: MIC against veterinary bacteria in vitro
CONDITION_INFO: Streptococcus suis, 18 h
List of log10 MIC values.
Values are log10 of MIC in µg/mL.

Field request: log10 MIC | item: C/C(=C\c1ncc(-c2ccc(Br)cc2)o1)C[C@@H]1OC[C@H](C[C@@H]2O[C@H]2[C@@H](C)[C@H](C)O)[C@@H](O)[C@H]1O
1.00

Continuing:
Field request: log10 MIC | item: C/C(=C\c1ncc(-c2ccc(C=O)cc2)o1)C[C@@H]1OC[C@H](C[C@@H]2O[C@H]2[C@@H](C)[C@H](C)O)[C@@H](O)[C@H]1O
1.30

Field request: log10 MIC | item: C/C(=C\c1ncc(-c2ccc(S(C)(=O)=O)cc2)o1)C[C@@H]1OC[C@H](C[C@@H]2O[C@H]2[C@@H](C)[C@H](C)O)[C@@H](O)[C@H]1O
1.00

Field request: log10 MIC | item: C/C(=C\c1ncc(-c2ccsc2)o1)C[C@@H]1OC[C@H](C[C@@H]2O[C@H]2[C@@H](C)[C@H](C)O)[C@@H](O)[C@H]1O
1.60

====

Tested on: Strep. pyogenes R80/421-A
ASSAY_PROTOCOL: MIC against human bacteria in vitro
Assay type: cell-based
CONDITION_INFO: Streptococcus pyogenes; Strep. pyogenes R80/421-A; 5% chocolated horse blood agar, 18 hours; read-out: MIC
MEASUREMENT_LABEL: MIC (µg/mL)
Please respond with the number in µg/mL and leave the unit unwritten.

Field request: MIC | item: C/C(=C\c1ncc(-c2ccccc2)s1)C[C@@H]1OC[C@H](C[C@@H]2O[C@H]2[C@@H](C)[C@H](C)O)[C@@H](O)[C@H]1O [Example 29, 2-(1-Normon-2-yl)-5-phenylthiazole A]
50

Continuing:
Field request: MIC | item: C/C(=C\c1ncc(-c2cccc([N+](=O)[O-])c2)o1)C[C@@H]1OC[C@H](C[C@@H]2O[C@H]2[C@@H](C)[C@H](C)O)[C@@H](O)[C@H]1O [Example 6]
4

Field request: MIC | item: C/C(=C\c1ncc(-c2ccc(C(=O)O)cc2)o1)C[C@@H]1OC[C@H](C[C@@H]2O[C@H]2[C@@H](C)[C@H](C)O)[C@@H](O)[C@H]1O [Example 17]
4

Field request: MIC | item: C/C(=C\c1ncc(-c2ccccc2[N+](=O)[O-])o1)C[C@@H]1OC[C@H](C[C@@H]2O[C@H]2[C@@H](C)[C@H](C)O)[C@@H](O)[C@H]1O [Example 26]
1

Field request: MIC | item: CSc1ccc(-c2cnc(/C=C(\C)C[C@@H]3OC[C@H](C[C@@H]4O[C@H]4[C@@H](C)[C@H](C)O)[C@@H](O)[C@H]3O)o2)cc1 [Example 9]
10

====

Tested on: M. suipneumoniae ATCC 25095
ASSAY_PROTOCOL: MIC against mycoplasma in vitro
Format: cell-based
CONDITION_INFO: Mesomycoplasma hyopneumoniae, ATCC25095, 144 h
MEASUREMENT_LABEL: MIC (µg/mL)
Please respond with the number in µg/mL and leave the unit unwritten.

Record excerpt, results attached:
Field request: MIC | item: C/C(=C\c1ncc(CCCCCCCCO)o1)C[C@@H]1OC[C@H](C[C@@H]2O[C@H]2[C@@H](C)[C@H](C)O)[C@@H](O)[C@H]1O
1

Field request: MIC | item: C/C(=C\c1ncc(-c2ccccc2)o1)C[C@@H]1OC[C@H](C[C@@H]2O[C@H]2[C@@H](C)[C@H](C)O)[C@@H](O)[C@H]1O
0.5

Field request: MIC | item: C/C(=C\c1ncc(-c2ccc(C#N)cc2)o1)C[C@@H]1OC[C@H](C[C@@H]2O[C@H]2[C@@H](C)[C@H](C)O)[C@@H](O)[C@H]1O
0.25

Field request: MIC | item: CSc1cccc(-c2cnc(/C=C(\C)C[C@@H]3OC[C@H](C[C@@H]4O[C@H]4[C@@H](C)[C@H](C)O)[C@@H](O)[C@H]3O)o2)c1
1

Attention now turns to another entry.
Field request: MIC | item: C/C(=C\c1cc(-c2ccccc2)on1)C[C@@H]1OC[C@H](C[C@@H]2O[C@H]2[C@@H](C)[C@H](C)O)[C@@H](O)[C@H]1O
1

Origin of measurements: patent US5041567A
